Target: recombinant human c-Met residues 974-end (Homo sapiens, UniProt P08581)
Construct: recombinant human c-Met residues 974-end; 6His; purchased Millipore
Sequence (P08581 974-1390 limits assumed): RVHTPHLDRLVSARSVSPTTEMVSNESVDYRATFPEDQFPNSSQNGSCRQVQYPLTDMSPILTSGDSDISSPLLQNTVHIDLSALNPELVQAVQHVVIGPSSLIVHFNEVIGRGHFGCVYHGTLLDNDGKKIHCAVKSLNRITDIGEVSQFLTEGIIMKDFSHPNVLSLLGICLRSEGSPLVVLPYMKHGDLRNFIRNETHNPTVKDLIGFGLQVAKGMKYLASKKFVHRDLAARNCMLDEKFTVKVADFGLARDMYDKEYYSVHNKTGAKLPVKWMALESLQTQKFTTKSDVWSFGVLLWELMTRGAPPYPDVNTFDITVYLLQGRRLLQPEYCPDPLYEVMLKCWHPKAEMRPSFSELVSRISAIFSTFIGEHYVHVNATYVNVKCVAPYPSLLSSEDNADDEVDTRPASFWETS
Assay: Inhibition of c-Met kinase (TR-FRET)
Format: biochemical
Conditions: 50.00 μM; read-out: Inhibitory rate on c-Met kinase
measured_endpoint: inhibition at 50 µM (%)
Numbers only, in %.

CC(C)=C1C/C=C(\C)CC/C=C(\C)CC1O (stereo not drawn) [Compound 2]	78.2

Return reported inhibition at 50 µM values for all items listed beneath this line.
1. CC(C)=C1C/C=C(\C)CC/C=C(\C)CC1OC(=O)c1ccc(C)cc1 (stereo not drawn) [Compound 3b]
2. CC(C)=C1C/C=C(\C)CC/C=C(\C)CC1OC(=O)c1ccc(C(F)(F)F)cc1 (stereo not drawn) [Compound 3d]

Reply:
1. 86
2. 85.4
